Please go through the items and note down their MIC99.
Test system: Mycobacterium tuberculosis
Method: Antitubercular activity against Mycobacterium tuberculosis H37Rv ATCC 27294 after 11 days by serial dilution method
Assay type: functional
Condition details: H37Rv ATCC 27294, 264 h
Give bare numbers, in µg/mL.

Known MIC99 results, listed for orientation:
{"Structure smiles string": "COc1ccc(OC)c(-c2nc(=O)ss2)c1", "MIC99 / µg/mL": 32}
{"Structure smiles string": "O=c1nc(-c2cc(F)c(Cl)nc2Cl)ss1", "MIC99 / µg/mL": 4}
{"Structure smiles string": "COc1cccc(-c2nc(=O)ss2)c1", "MIC99 / µg/mL": 32}
{"Structure smiles string": "O=c1oc(-c2ccc(F)cc2)ns1", "MIC99 / µg/mL": 16}
{"Structure smiles string": "Cc1ccccc1-c1nsc(=O)o1", "MIC99 / µg/mL": 16}

For each of the molecules below, state MIC99.
1. COc1ccc(OC)c(-c2nsc(=O)o2)c1
2. O=c1nc(-c2ccccc2Cl)ss1
3. O=c1oc(-c2ccccc2Cl)ns1

[16, 16, 8]

The measurements presented in this section are drawn from ChEMBL document CHEMBL2331501.
